conditions: 323.15 K; 101.33 kPa; Liquid; Vibrating tube method
assay_metric: mass density (kg/m3)

CCCCCCCCCCCC(=O)OC [methyl dodecanoate]	846.1
CCCCCCCCCCCC(=O)OCC [ethyl dodecanoate]	839
CCCCCCCC/C=C\CCCCCCCC(=O)OC [methyl cis-9-octadecenoate]	852.3
CCCCCCCC/C=C\CCCCCCCC(=O)OCC [ethyl (Z)-9-octadeceneoate]	847.6
CCCCC/C=C\C/C=C\CCCCCCCC(=O)OC [methyl (Z,Z)-9,12-octadecadienate]	864.3
CCCCCCCCCCCCCCCCCC(=O)OC [methyl octadecanoate]	842.5
CCCCCCCCCCCCCC(=O)OCC [ethyl tetradecanoate]	838.2
CCCCCCCCCCCCCC(=O)OC [methyl tetradecanoate]	844.6
CCCCCCCCCCCCCCCC(=O)OC [methyl hexadecanoate]	843.3
CCCCCCCC(=O)OC [methyl octanoate]	850.8
